Test system: MDA-N
Experiment: NCI tumour cell line growth inhibition, 48 h
Activity calls are given as the source filed them. Rule as the data show it: active = GI50 up to about 1.1 µM and inactive = higher.
Outcome codes: yes (active), no (inactive)

| compound | classification |
| --- | --- |
| CCC(C)(C)c1ccc(OCCCCNC(=O)c2ccc3ccccc3c2O)c(C(C)(C)CC)c1 | no |
| CCN1CCc2sc3nc(S)n(C)c(=O)c3c2C1 | no |
| COCc1cc2c(s1)C(=O)C1=C(C2=O)C2(C=C(Br)C(=O)C(Br)=C2)CCN1 | no |
| CN(C)CCNC(=O)c1cccc(NC(=O)c2ccccc2)c1[N+](=O)[O-] | no |
| COc1ccc2nc3cc(Cl)ccc3c(NCCCN(CCCl)CCCl)c2c1 | yes |
| CC(=O)c1ccc(O)c(CN(C2CCCCC2)C2CCCCC2)c1O | no |
| Nc1nc(Cl)cc(Nc2ccc3c(c2)CCC3)n1 | no |
| O=C1OC(=O)C2C1C(c1ccccc1[N+](=O)[O-])C=C(c1ccco1)N2c1ccncc1 (stereo not given) | no |
| O=C1CSC2(CCN(CCCN3c4ccccc4Sc4ccc(Cl)cc43)CC2)N1 | no |
| CC(NC(NC(C)C12CC3CC(CC(C3)C1)C2)=C(C(Cl)=C(Cl)Cl)[N+](=O)[O-])C12CC3CC(CC(C3)C1)C2 (stereo not given) | no |
| N#CC1N(C(=O)c2ccc(F)cc2)c2ccccc2N1C(=O)c1ccc(F)cc1 | no |
| O=C1/C(=C/c2ccccc2)CCCc2ccccc21 | no |
| O=C(c1ccccc1)c1ccc2c(c1)nc1n2C(c2c(F)cccc2F)SC1 (stereo not given) | no |
| O=C1CS[C@@](CC(c2ccc(Cl)cc2)c2ccc(Cl)cc2)(c2ccc(Cl)cc2)N1 | no |
| CCOC(=O)/C=C/[C@H](O[Si](CC)(CC)CC)C(C)(C)C | no |
| COC(=O)c1ccc(-n2c(C)nc(=O)c(-c3ccccc3)c2C)cc1 | no |
| Cc1ccc(C(CC(=O)C(C)(C)CN2CCCCC2)SCCS(=O)(=O)O)cc1 (stereo not given) | no |
| C/C(=N\N=C(\N)SB(F)F)c1ccc2ccccc2c1 | no |
| CC(C)(C)OC(=O)NC(Cc1ccccc1)OCc1ccccc1 (stereo not given) | no |
| C[Si](C)(C)CCOCN(C(=O)C1=CCC2(CC1)OCCO2)c1ccccc1I | no |

====

Here the recorded GI50 is given for each entry.
Tested on: 786-0
Test: NCI tumour cell line growth inhibition, 48 h
The source made the active and inactive calls. No stated cut-off is given here; in the data, active = GI50 up to about 1.1 µM and inactive = higher.

| compound | experimental-system | GI50 |
| --- | --- | --- |
| N=C(N)C1CN(CCCCCCCCCCN2CC(C(=N)N)C(O)=NC2=O)C(=O)N=C1O (stereo not given) | 786-0 | > 10 µM (inactive) |
| CC(=O)OC1CC2C(C)(C)OC(=O)CC(OC(C)=O)[C@]2(C)C2CCC3(C)C(=CCC3[C@H]3COC(=O)C3)[C@]12C (stereo not given in full) | 786-0 | > 100 µM (inactive) |
| CC1CC2C3CC(F)C4=CC(=O)C=CC4(C)C3(F)C(O)CC2(C)C1(O)C(=O)COC(=O)C(C)(C)C (stereo not given) | 786-0 | 68.1 µM (inactive) |
| COC(=O)C(=O)C(C(=O)C=C(C)C)C(=O)C(=O)Nc1cc(C(F)(F)F)ccc1Cl (stereo not given) | 786-0 | > 100 µM (inactive) |
| SCCCSCCSCCCSCCS | 786-0 | > 100 µM (inactive) |

====

Tested on: SK-MEL-2
Test: NCI tumour cell line growth inhibition, 48 h
Active and inactive are the calls of the source. Cut-off read from the data, not from the text of the source: active = GI50 up to about 1.1 µM and inactive = higher.

| molecule | GI50 |
| --- | --- |
| CC(=O)c1ccc(O)c(CN(C2CCCCC2)C2CCCCC2)c1O | > 100 µM (inactive) |
| C/C(=N\c1cccc(Cl)c1)c1ccncc1 | > 100 µM (inactive) |
| CCCCCCCC(CC(=O)O)OC(=O)CC(CCCCCCC)OC1OC(C)C(O)C(O)C1OC1OC(C)C(O)C(O)C1O (stereo unspecified) | > 100 µM (inactive) |
| CCCCCCCCCCCCCCC(C)CCC(=O)O (stereo unspecified) | 60 µM (inactive) |
| O=C1CSC2(CCN(CCCN3c4ccccc4Sc4ccc(Cl)cc43)CC2)N1 | 16.2 µM (inactive) |
| O=C(NCCCNC(=O)c1ccc2c(O)c(O)ccc2c1)c1ccc2c(O)c(O)ccc2c1 | 35.3 µM (inactive) |

====

Tested on: SF-268
Experiment: NCI tumour cell line growth inhibition, 48 h
The source made the active and inactive calls. Cut-off read from the data, not from the text of the source: active = GI50 up to about 1.1 µM and inactive = higher.
observed-property: GI50

| compound | observed-property | val |
| --- | --- | --- |
| COc1ccc(C2S/C(=C\c3cccc(OC)c3)C(=O)N2NC(=O)Cc2ccccc2)cc1 (stereo unspecified) | GI50 | > 100 µM (inactive) |
| CCC1OC(=O)C(C)C(OC2CC(C)(O)C(O)C(C)O2)C(C)C(O)C(C)(O)CC(C)C(=O)C(C)C(O)C1C (stereo unspecified) | GI50 | > 300 µM (inactive) |
| COc1cc2c(cc1OC)-c1cc3ccc(OC)c(OC)c3c[n+]1CC2 [PALMATINE CHLORIDE] | GI50 | 82.4 µM (inactive) |
| Cc1ccc(NC(=O)CC2C(=O)Nc3ccccc3[S+]2[O-])cc1C (stereo unspecified) | GI50 | 75.2 µM (inactive) |
| N#Cc1sc2c(c1OC(=O)c1ccco1)c(=O)n(-c1ccccc1)c(=S)n2-c1ccccc1 | GI50 | 32.4 µM (inactive) |
| Clc1cc(Cl)c2n[se]nc2c1 | GI50 | > 100 µM (inactive) |
| C[C@@](O)(/C=C/[C@H]1CC=CC(=O)O1)[C@@H](C[C@@H](O)\C=C/C=C\C=C\CO)OP(=O)(O)O [FOSTRIECIN SODIUM] | GI50 | 16.4 µM (inactive) |
| CC[N+](CC)(CCNCC(N)=O)CC(N)=O | GI50 | > 10 µM (inactive) |
| CCOC(=O)C1C(C(C)C)C2(C#N)C(=N)OC1(C)C2(C#N)C#N (stereo unspecified) | GI50 | > 100 µM (inactive) |
| Cc1ccc2c(n1)C(=O)c1ccccc1C2=O | GI50 | 31.3 µM (inactive) |
| C/C(=N\NC(=S)NNC(=S)N(C)c1ccccc1)c1ccccn1 | GI50 | 2.91 µM (inactive) |
| CCOC(=O)c1c(NC(=O)c2ccc(Br)cc2)sc2c1CCCC2 | GI50 | > 100 µM (inactive) |
| CC(=O)O[C@]12CCCC1C1(O)C(O)CCCC12 (stereo partly specified) | GI50 | > 100 µM (inactive) |
| COc1ccc(N2C(=O)/C(=C/c3ccc(N(CCC#N)CCC#N)cc3)N=C2c2ccccc2)cc1 | GI50 | > 100 µM (inactive) |
| COc1c(C)cc(O)cc1C=O | GI50 | > 100 µM (inactive) |
| CCCCCC(=O)OC[n+]1ccc(-c2c(COC(=O)NC(C)C)c(COC(=O)NC(C)C)c3n2CCC3)cc1 | GI50 | > 94.6 µM (inactive) |
| COc1cc2oc(=O)ccc2cc1C(=O)CC(C)C | GI50 | 99.3 µM (inactive) |
| NC(=O)C(c1ccccc1)N1OC2C(=O)N(c3ccccc3)C(=O)C2C1c1c2ccccc2c(Cl)c2ccccc12 (stereo unspecified) | GI50 | > 100 µM (inactive) |
| O=c1[nH]c2ccc(C(F)(F)F)cc2nc1-c1ccccc1 | GI50 | > 100 µM (inactive) |
| CCN1CCc2sc3nc(S)n(C)c(=O)c3c2C1 | GI50 | > 100 µM (inactive) |
| Clc1nc(Cl)c(Cl)c(Cl)n1 | GI50 | 17.2 µM (inactive) |

====

Tested on: SF-295
Assay: NCI tumour cell line growth inhibition, 48 h
Calls of active or inactive are those of the source. Cut-off read from the data, not from the text of the source: active = GI50 up to about 1.1 µM and inactive = higher.
Outcome codes: YES (active), NO (inactive)

| compound | classification |
| --- | --- |
| C/C(=N\NC(=S)NNC(=S)N(C)c1ccccc1)c1ccccn1 | NO |
| COC(=O)[C@@H]1OC(C)(c2ccccc2)O[C@H]1C(=O)OC | NO |
| O=CN(CCN1CCCC1)C1CCc2cc(Cl)c(Cl)cc2C1 (configuration not stated) | YES |
| CCCCCCCCCCCCCC(=O)N(CCCCCCCCC)CC(O)C(O)C(OC1OC(CO)C(O)C(O)C1O)C(O)CO (configuration not stated) | NO |
| O=C1/C(=C/c2ccc3c(c2)OCO3)Sc2scc(-c3ccc(O)c(O)c3)[n+]21 | NO |
| NS(=O)(=O)c1ccc(NC(=O)Cc2nc3ccccc3s2)cc1 | NO |
| CC1(C)S[C@H](CN)N[C@H]1C(=O)OC(c1ccccc1)c1ccccc1 | NO |
| CC1CC2C3CC(F)C4=CC(=O)C=CC4(C)C3(F)C(O)CC2(C)C1(O)C(=O)COC(=O)C(C)(C)C (configuration not stated) | NO |
| C=C1CCC2C(C)(CO)C(O)CCC2(C)C1C/C=C1/CCOC1=O (configuration not stated) | NO |
| Cc1ccc(Nc2cc(=O)[nH]c(=S)[nH]2)cc1 | NO |
| CCOC(=O)c1c(NC(=O)c2ccc(Br)cc2)sc2c1CCCC2 | NO |
| CC1c2[nH]c3ccccc3c2CCN1O (configuration not stated) | NO |
| Nc1ccccc1C(=O)CC1OC(=O)c2ccccc21 (configuration not stated) | NO |
| N#CC(Cc1ccccc1)N(CCC1=CCCCC1)Cc1ccccc1 (configuration not stated) | NO |
| CCC(C)(C)c1ccc(OCCCCNC(=O)c2ccc3ccccc3c2O)c(C(C)(C)CC)c1 | NO |
| N#CCCC(CC#N)N1CCN(C(CC#N)CCC#N)CC1 (configuration not stated) | NO |
| CCCCc1ccc(Nc2nc(O)c3ncn(COCCO)c3n2)cc1 | NO |
| O=C1Nc2ccc(S(=O)(=O)N(CCO)CCO)cc2/C1=C1/Nc2ccccc2C1=O | NO |
| O=C(CCCn1cnc([N+](=O)[O-])n1)NCCCn1ccnc1[N+](=O)[O-] | NO |
| CCn1c(SC(C)C(=O)c2c(C)n(C)n(-c3ccccc3)c2=O)nc2ccccc2c1=O (configuration not stated) | NO |
| O=C(OC1CCC(=C2SCCCS2)[C@H]1C1SCCCS1)c1ccccc1 (some centres not stated) | NO |
| CC(C)(C)C1=NC(=P(c2ccccc2)(c2ccccc2)c2ccccc2)C(=O)O1 | NO |
